Reference source: paper PMC11544713

# experimental_protocol: Acute intervention: nutrikinetics of plasma metabolites after ingestion of O. europaea extract (untargeted HPLC-ESI-QTOF-MS)
# condition_details: 1 h after O. europaea extract
So basically, if mean chromatographic area in plasma, T1 comes in under 200 it's criterion met, and if it's 200 or more it's criterion not met.

O=C(/C=C/C1=CC(=O)C(=O)C=C1)OC1CC(O)(C(=O)O)CC(O)C1O (centres unmarked)    criterion not met

In: Does the reported mean chromatographic area in plasma, T1 of the following compound sit strictly below 200? Oc1cc(O)c2c(c1)O[C@H](c1ccc(O)c(O)c1)[C@H](O)[C@H]2SCc1ccccc1 [4β-benzylthioepicatechin]
Out: criterion met

In: Does the reported mean chromatographic area in plasma, T1 of the following compound sit strictly below 200? COc1cc(C(=O)O)cc(OC)c1OC
Out: criterion met

In: Does the reported mean chromatographic area in plasma, T1 of the following compound sit strictly below 200? O=C(O)CCCCCCCCC(=O)O [decanedioic acid isomer 1, decanedioic acid]
Out: criterion met
